Source of measurements: ChEMBL document CHEMBL5360626

Assay: Selectivity index, ratio of IC50 for human skin fibroblast to IC50 for human Caco-2 cells
Readout name: Ratio IC50

[P] C=C(C)[C@@H]1CC[C@]2(C(=O)OCCCCCC[P+](c3ccccc3)(c3ccccc3)c3ccccc3)CC[C@]3(C)[C@H](CC[C@@H]4[C@@]5(C)CC[C@H](O[C@@H]6O[C@H](CO)[C@@H](O)[C@H](O)[C@H]6O)C(C)(C)[C@@H]5CC[C@]43C)[C@@H]12.[Br-]
[Q] C=C(C)[C@@H]1CC[C@]2(C(=O)OCCCCCC[P+](c3ccccc3)(c3ccccc3)c3ccccc3)CC[C@]3(C)[C@H](CC[C@@H]4[C@@]5(C)CC[C@H](O[C@H]6O[C@H](CO)[C@@H](O)[C@H](O)[C@@H]6O)C(C)(C)[C@@H]5CC[C@]43C)[C@@H]12.[Br-]
[R] C=C(C)[C@@H]1CC[C@]2(C(=O)OCCCCCC[P+](c3ccccc3)(c3ccccc3)c3ccccc3)CC[C@]3(C)[C@H](CC[C@@H]4[C@@]5(C)CC[C@H](O[C@@H]6O[C@@H](C)[C@H](O)[C@@H](O)[C@H]6O)C(C)(C)[C@@H]5CC[C@]43C)[C@@H]12.[Br-]
Query: I would appreciate it if you could sort these 3 molecules by Ratio IC50, starting from the smallest number. Your reply should list the labels following the order given in the request.
Response: Q, R, P
